biological target: NLRP3 inflammasome (Homo sapiens, UniProt Q96P20); construct: endogenous in cells; experiment: IL-1β secretion assay (NLRP3 IC50) in LPS-primed, nigericin-activated THP-1 cells, HTRF; conditions: monocytic THP-1 cells; LPS 10 ng/mL 3 h priming, then compound + nigericin 10 μM 2 h; relative IC50, 10 concentrations, geometric mean
Sequence (Q96P20 whole entry): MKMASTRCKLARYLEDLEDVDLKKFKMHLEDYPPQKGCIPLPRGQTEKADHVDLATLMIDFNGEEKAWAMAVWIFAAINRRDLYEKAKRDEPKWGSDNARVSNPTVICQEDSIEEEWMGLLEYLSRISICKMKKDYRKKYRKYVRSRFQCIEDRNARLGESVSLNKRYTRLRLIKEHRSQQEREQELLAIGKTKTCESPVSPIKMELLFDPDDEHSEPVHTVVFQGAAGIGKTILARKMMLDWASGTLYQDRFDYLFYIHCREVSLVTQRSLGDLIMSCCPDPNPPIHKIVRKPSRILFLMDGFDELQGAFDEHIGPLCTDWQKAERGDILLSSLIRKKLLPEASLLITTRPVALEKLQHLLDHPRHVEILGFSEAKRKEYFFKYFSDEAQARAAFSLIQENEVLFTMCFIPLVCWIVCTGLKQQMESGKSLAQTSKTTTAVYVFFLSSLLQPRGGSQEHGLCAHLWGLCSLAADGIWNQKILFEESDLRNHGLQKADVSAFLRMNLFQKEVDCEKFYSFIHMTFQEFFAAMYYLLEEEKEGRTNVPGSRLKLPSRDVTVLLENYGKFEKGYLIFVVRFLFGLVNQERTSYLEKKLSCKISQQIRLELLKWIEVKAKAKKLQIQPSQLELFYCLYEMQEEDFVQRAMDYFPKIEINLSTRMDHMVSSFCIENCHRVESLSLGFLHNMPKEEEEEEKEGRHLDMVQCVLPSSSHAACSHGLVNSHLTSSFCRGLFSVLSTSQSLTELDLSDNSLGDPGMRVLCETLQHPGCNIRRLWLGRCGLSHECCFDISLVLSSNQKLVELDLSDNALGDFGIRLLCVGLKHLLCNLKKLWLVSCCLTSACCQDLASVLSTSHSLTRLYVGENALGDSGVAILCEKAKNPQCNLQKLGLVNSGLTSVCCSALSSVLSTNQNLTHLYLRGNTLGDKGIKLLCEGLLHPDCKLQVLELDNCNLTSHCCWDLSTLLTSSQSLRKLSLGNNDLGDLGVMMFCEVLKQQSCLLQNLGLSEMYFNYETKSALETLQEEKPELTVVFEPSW
Doc: threshold 70 nM (exclusive). Items with IC50 beneath it return rule met; others return rule not met.

Reference set, count: 2
Cc1cc(C)c(-c2ccc(N3C[C@@H]4NCCO[C@H]4C3)nn2)c(O)c1; rule not met
Cc1ccc(-c2nnc(N3CCO[C@H](CO)C3)c3c2CCC3)c(O)c1; rule not met

Task item: Field: below-cutoff. Rule: recorded IC50 strictly less than 70 nM. Subject: "Cc1cc(N2CCO[C@@H]3CCN(C)C[C@@H]32)nnc1-c1ccc(F)cc1O"
Reply: rule met

Task item: Is it true that IC50 reported for "Cc1cc(C)c(-c2ccc(N3C[C@H]4NCCO[C@@H]4C3)nn2)c(O)c1" is less than 70 nM?
Reply: rule not met

Task item: Threshold test, IC50 < 70 nM: Cc1cc(C(F)(F)F)cc(O)c1-c1ccc(N2CCO[C@@H]3CCN(C4CCC4)C[C@@H]32)nn1 (single isomer, unassigned)
Reply: rule met

Task item: Does the reported IC50 of the following compound sit strictly below 70 nM? "Cc1cc(O)c(-c2ccc(N3CCO[C@H](CO)C3)nn2)c(Cl)c1"
Reply: rule met

Task item: Does the reported IC50 of Cc1cc(Cl)cc(O)c1-c1ccc(N2CCO[C@H]3CCN(C)C[C@H]32)nn1 (racemic) [Example 224] stay below 70 nM?
Reply: rule met

Task item: Answer whether the compound "C#Cc1cc(C)c(-c2ccc(N3CCO[C@H](CO)C3)nn2)c(O)c1" has IC50 strictly less than 70 nM
Reply: rule met

Task item: For "Cc1cc(O)c(-c2ccc(N3CCO[C@H](CO)C3)nn2)c(F)c1" , is the recorded IC50 below the cut-off of 70 nM?
Reply: rule not met

Task item: Could you please tell me whether IC50 recorded for CC(=O)N1CC[C@H]2CCN(c3ccc(-c4c(C)cc(C(F)(F)F)cc4O)nn3)[C@H]2C1 [Example 395] is less than 70 nM?
Reply: rule not met

Task item: Lab log: compare recorded IC50 with 70 nM; is it strictly lower for CC(=O)N1CC[C@@H]2OCCN(c3ccc(-c4c(C)cc(C(F)(F)F)cc4O)nn3)[C@@H]2C1 (stereo in doubt) ?
Reply: rule met

Task item: Dear reviewer, please state whether "CCN[C@H]1CCCN(c2ccc(-c3c(C)cc(C)cc3O)nn2)C1" has IC50 strictly beneath 70 nM.
Reply: rule not met

Task item: I wonder whether Cc1cc(C(F)(F)F)cc(O)c1-c1ccc(N2CC[C@H]3CNC[C@H]32)nn1 (racemic) has IC50 below 70 nM. Can you tell?
Reply: rule met

Task item: Strictly below 70 nM in IC50? "Cc1cc(C)c(-c2ccc(N3CCC[C@H](N)C3)nn2)c(O)c1"
Reply: rule not met

Task item: Below 70 nM on IC50? Entry "OC[C@@H]1CN(c2cc(C(F)(F)F)c(-c3ccc(Cl)cc3O)nn2)CCO1"
Reply: rule not met

###

Target: NLRP3 inflammasome (Homo sapiens)
Construct: endogenous in cells
Test: IL-1β secretion assay (NLRP3 IC50) in LPS-primed, nigericin-activated THP-1 cells, HTRF
Conditions: monocytic THP-1 cells; LPS 10 ng/mL 3 h priming, then compound + nigericin 10 μM 2 h; relative IC50, 10 concentrations, geometric mean
Procedure: Monocytic THP-1 cells were maintained in RPMI 1640 media (Gibco 21875)+10% FBS, (Gibco 10500)+1% penicillin/streptomycin (Gibco 15140-122). […] 16 μL supernatant was removed, and IL-1β levels were monitored using an HTRF assay (Human IL1b Kits HTRF Cisbio ref: 62HILBPEH) according to manufacturers' instructions. […] Relative IC50 (IC50 rel) were obtained from a dose response curve with 10 concentrations. Final IC50 rels are expressed as the geometric mean. […]
// boundary case: IC50 equal to 300 nM maps to Not fulfilled; strictly smaller maps to Fulfilled

Task item: In plain terms, does CN1CC[C@@H]2CCN(c3ccc(-c4c(O)cccc4C(F)(F)F)nn3)[C@@H]2C1 (single isomer, unassigned) come in under 300 nM for IC50?
Reply: Not fulfilled

Task item: Find out if reported IC50 for CCc1cc(C(F)(F)F)cc(O)c1-c1ccc(N2CC[C@@H]3CCN(C)C[C@@H]32)nn1 (single isomer, unassigned) [Example 492] is less than 300 nM
Reply: Fulfilled

Task item: Say whether its IC50 is strictly beneath 300 nM. Entry: CCN1CC[C@H]2CCN(c3ccc(-c4c(C)cccc4O)nn3)[C@H]2C1 (single isomer, unassigned)
Reply: Not fulfilled
